# target: PBP3 (Pseudomonas aeruginosa)
# Sequence (G3XD46 whole entry): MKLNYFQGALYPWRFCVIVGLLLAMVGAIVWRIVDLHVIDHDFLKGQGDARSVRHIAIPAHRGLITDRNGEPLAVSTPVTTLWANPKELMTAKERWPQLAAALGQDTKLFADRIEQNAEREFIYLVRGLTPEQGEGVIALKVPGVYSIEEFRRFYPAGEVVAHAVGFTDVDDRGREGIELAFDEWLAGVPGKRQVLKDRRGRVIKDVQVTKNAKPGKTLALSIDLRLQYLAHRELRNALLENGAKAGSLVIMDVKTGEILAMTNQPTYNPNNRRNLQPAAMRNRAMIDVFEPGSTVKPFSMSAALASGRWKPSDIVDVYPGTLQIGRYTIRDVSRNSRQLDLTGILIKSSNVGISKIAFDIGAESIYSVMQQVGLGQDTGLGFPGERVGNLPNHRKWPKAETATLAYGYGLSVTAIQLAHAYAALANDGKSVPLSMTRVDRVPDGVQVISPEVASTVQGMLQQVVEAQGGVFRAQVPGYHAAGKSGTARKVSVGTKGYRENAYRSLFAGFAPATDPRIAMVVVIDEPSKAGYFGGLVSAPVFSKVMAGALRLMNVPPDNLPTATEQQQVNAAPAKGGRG
# assay summary: Bocillin-FL competition in whole cells
# Assay type: cell-based
# Set-up: gene ftsI; native full-length protein in intact P. aeruginosa PAO1 cells, Bocillin-FL labelled
# settings: read-out: Drug mg/L^a / MEM / FOX; intact PAO1 cells, 30 min incubation; covalent
observable: pIC50
Answers are plain numbers, as −log10 of the molar value.

Q. Please look up its pIC50: CO[C@@]1(NC(=O)Cc2cccs2)C(=O)N2C(C(=O)O)=C(COC(N)=O)CS[C@@H]21 [cefoxitin]
A. 2.27

---

# target: PBP4 (Pseudomonas aeruginosa)
# Construct: gene PA3047; native full-length protein in intact P. aeruginosa PAO1 cells, Bocillin-FL labelled
# Sequence (Q9HZG1 entry or part of it): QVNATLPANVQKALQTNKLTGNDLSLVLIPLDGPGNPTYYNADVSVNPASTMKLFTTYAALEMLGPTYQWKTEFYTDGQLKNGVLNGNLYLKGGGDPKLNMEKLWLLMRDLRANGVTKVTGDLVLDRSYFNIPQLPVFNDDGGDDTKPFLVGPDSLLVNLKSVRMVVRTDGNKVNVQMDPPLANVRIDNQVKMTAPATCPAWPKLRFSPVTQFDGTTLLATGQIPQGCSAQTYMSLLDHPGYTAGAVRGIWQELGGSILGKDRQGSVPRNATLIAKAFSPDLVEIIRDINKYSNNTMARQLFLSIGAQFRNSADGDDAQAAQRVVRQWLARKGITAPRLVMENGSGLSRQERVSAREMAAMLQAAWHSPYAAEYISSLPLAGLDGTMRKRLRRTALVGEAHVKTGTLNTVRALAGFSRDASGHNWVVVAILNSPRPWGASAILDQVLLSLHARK
# assay summary: Bocillin-FL competition in whole cells
# Assay type: cell-based
# settings: read-out: Drug mg/L^a / TIC / REL; intact PAO1 cells, 30 min incubation; covalent
observable: IC50 (µM)
Give bare numbers, in µM.

Q. Please look up its IC50: O=C(NC1CCNCC1)[C@@H]1CC[C@@H]2CN1C(=O)N2OS(=O)(=O)O [relebactam]
A. 24.4

meta.source: paper PMC12802951
